Please provide measured pKd for the entries that follow.
Molecular target: CaMKII kinase domain D136N mutant (residues 1–283) (Drosophila, UniProt Q00168 1-283, D136N)
Sequence (Q00168 1-283 D136N): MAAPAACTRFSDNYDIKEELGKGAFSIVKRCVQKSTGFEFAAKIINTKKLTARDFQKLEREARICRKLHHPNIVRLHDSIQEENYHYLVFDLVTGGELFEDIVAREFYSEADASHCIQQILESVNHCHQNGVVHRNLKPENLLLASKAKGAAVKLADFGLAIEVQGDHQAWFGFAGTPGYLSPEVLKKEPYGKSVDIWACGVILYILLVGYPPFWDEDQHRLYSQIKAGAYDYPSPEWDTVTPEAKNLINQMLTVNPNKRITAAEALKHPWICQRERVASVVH
Test: ITC
Non-standard residues stand in square brackets, D forms with d. No end group written: not given here. pT = C[C@@H](OP(=O)(O)O)[C@H](N)C(=O)O; MBP = not defined here
The meaning of pKd here: minus log10 of the concentration in molar units.

So what does the record say about pKd for VFPKAPKLQANQAKLARQDTIDEGGEVD (domain or fragment, UniProt Q02280 768-795, looked up) ? 6.66

Next binder up: {MBP}-VFPKAPKLQANQAKLARQD[pT]IDEGGEVD (domain or fragment, Drosophila, UniProt Q02280 768-795, looked up, reading uncertain) [MBP-dEAG_(short)^P (phosphorylated dEAG_(short), phosphorylated at T787)] 9.32
